These measurements were taken from the supplement of paper PMC10567573.

B1: NECAB1 (parent)
chain: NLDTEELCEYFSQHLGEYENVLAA

Variants of: B1
protocol.text: protein stability index of a GFP-peptide fusion (GPS, HEK-293T) (PSI 1-6); higher = more stable;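 note: lentivirally expressed fusions sorted by FACS into six bins by GFP to DsRed ratio, PSI derived from sequencing read proportions per bin multiplied by bin number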
test.context: c terminus: a fixed tail appended
Entries and their protein stability index values follow.

{"variant.label": "N20L", "protein stability index": 1.23}
{"variant.label": "L2Y", "protein stability index": 2.78}
{"variant.label": "D3Q", "protein stability index": 1.94}
{"variant.label": "Q13N", "protein stability index": 2.89}
{"variant.label": "N1Q", "protein stability index": 3.41}
{"variant.label": "A24F", "protein stability index": 2.02}
{"variant.label": "Y10N", "protein stability index": 4.58}
{"variant.label": "A23T", "protein stability index": 3.06}
{"variant.label": "L2W", "protein stability index": 2.21}
{"variant.label": "D3G", "protein stability index": 1.48}
{"variant.label": "Y10P", "protein stability index": 4.47}
{"variant.label": "C8N", "protein stability index": 4.18}
{"variant.label": "E5V", "protein stability index": 2.1}
{"variant.label": "E9D", "protein stability index": 3.15}
{"variant.label": "L2R", "protein stability index": 4}
{"variant.label": "A23S", "protein stability index": 2.23}
{"variant.label": "E9I", "protein stability index": 2.47}
{"variant.label": "F11E", "protein stability index": 5.25}
{"variant.label": "N20M", "protein stability index": 1.93}
{"variant.label": "E5I", "protein stability index": 1.99}
{"variant.label": "E9M", "protein stability index": 1.9}
{"variant.label": "Y18D", "protein stability index": 5.13}
{"variant.label": "F11I", "protein stability index": 3.59}
{"variant.label": "S12F", "protein stability index": 3.17}
{"variant.label": "C8L", "protein stability index": 2.86}
{"variant.label": "N20E", "protein stability index": 2.74}
{"variant.label": "E5T", "protein stability index": 2.4}
{"variant.label": "N1Y", "protein stability index": 1.83}
{"variant.label": "T4H", "protein stability index": 4.26}
{"variant.label": "L22R", "protein stability index": 4.39}
{"variant.label": "N20F", "protein stability index": 1.66}
